Experiment: chemical genetic growth profiling, strain panel (AID 1159580);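 further: tested at 20 µM; growth read once vehicle control cultures reached saturation at 30 °C; 1 = growth at the plate median or of vehicle wells; lower values mean less growth of the strain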
Conditions: S. cerevisiae deletion strains, growth OD, locus YDR226W, strain ADK1, stronger effect = lower value
Among all 5,500 compounds or so, about 2,000 (36%) were called active. About 18% were inconclusive and are not listed. The list shows a part of the results.
reportedProperty: normalized growth
Answer with a number only.

get_value(item= "O=S(=O)(c1ccc(Cl)cc1)N(Cc1cccnc1)Cc1ccc(Cl)cc1Cl" , readout=normalized growth) returns 0.938

normalized growth measured on "Cc1oc(C(C)(C)C)cc1-c1cc(N)n(-c2ccc(I)cc2)n1" = 0.987

Lab book: normalized growth of "O=C(NCCc1ccncc1)c1ccc(Cl)c(Cl)c1" noted as 0.985

For "O=C(N/N=C\c1cc(Br)ccc1O)c1ccccc1Oc1ccccc1" the compound record lists normalized growth as 0.972

###

Assay: chemical genetic growth profiling, strain panel (AID 1159580)
Conditions: S. cerevisiae deletion strains, growth OD, locus YBR021W, strain FUR4
Screen size: about 5,500 compounds; about 2,000 (36%) were called active. Another 18% or so got no clear call; they are omitted. Rule as the data show it: active = normalized growth mostly below about 0.91 (no sharp cut-off); inconclusive = no clear call, values can overlap the other calls; inactive = mostly above about 0.92. Some of the results follow.
Give one outcome, nothing more. List: true (1) for active, false (0) for inactive

compound	category
CC1(C)CC[C@]2(C)CC[C@]3(C)C(=CCC4[C@@]5(C)CC[C@H](O)C(C)(C)C5CC[C@]43C)C2C1 (stereo not given in full)	false (0)

Recorded test outcome, item "Nc1ccc(S(=O)(=O)c2ccc(N)cc2)cc1"
false (0)

Identify the outcome logged in this assay for the compound shown: Nc1ccccc1C(=O)CC(N)C(=O)O (stereo not given)
false (0)

###

Reported normalized growth values for a set of compounds
Assay: chemical genetic growth profiling, strain panel (AID 1159580)
Settings: S. cerevisiae deletion strains, growth OD, locus YOL147C, strain pex11, stronger effect = lower value
About 2,000 (36%) of roughly 5,500 compounds were called active. Roughly 18% stayed inconclusive and do not appear here. The list shows a part of the results.
Hey, just send me the number, nothing else.

Some compounds with known normalized growth results, for comparison:
compound	normalized growth
COc1cc(C(=O)O[C@H]2CC[C@@]3(C)[C@@H]4CC[C@H]5[C@]6(O)C[C@H](O)[C@@]7(O)[C@@H](CN8C[C@@H](C)CC[C@H]8[C@@]7(C)O)[C@]6(O)C[C@@]53O[C@]24O)cc(OC)c1OC	0.985
OC(CCN1CCCCC1)(c1ccccc1)C1CCCCC1 (centres undefined)	0.994

What the record says about CC(C)CC(N(C)C)C1(c2ccc(Cl)cc2)CCC1 (centres undefined) : normalized growth is 1

// sample "Nc1c2ccccc2nc2ccccc12" , its normalized growth was 0.661

The recorded normalized growth for entry "C[C@@H]1CC[C@H]2[C@@H](C)C(=O)O[C@@H]3O[C@@]4(C)CC[C@@H]1[C@]32OO4" equals 0.869

normalized growth recorded for this compound, "Cc1ccnc(NS(=O)(=O)c2ccc(N)cc2)n1" , is 1.02

In plain terms, C=C/C(C)=C\CC1C(C)(O)CCC2C(C)(C)CCCC21C (centres undefined) has a documented normalized growth of 0.152

compound CC1C(=O)OC2C1CCC1(C)C=CC(=O)C3(C)OC213 (centres undefined) , normalized growth observed: 1.01

The recorded normalized growth for "O=C1c2c(O)cccc2Cc2cccc(O)c21" is 0.997

Reported normalized growth for C[C@@H]1OC(O[C@H]2[C@H](OC(=O)[C@]34CCC(C)(C)CC3C3=CCC5[C@@]6(C)CC[C@H](OC7O[C@@H](C)[C@H](O[C@@H]8OC[C@@H](O)[C@H](O)[C@H]8O)[C@@H](O)[C@H]7O)C(C)(C)C6CC[C@@]5(C)[C@]3(C)CC4O)OC[C@H](O)[C@H]2O)[C@H](O)[C@H](O)[C@H]1O[C@@H]1O[C@H](CO)[C@@H](O)[C@H](O)[C@H]1O (some centres undefined) was 0.986

Value of normalized growth reported for the compound C/C=C(/C)C(=O)OC1CCC2(C)C3CCC4C5(O)CC(O)C6(O)C(CN7CC(C)CCC7C6(C)O)C5(O)CC42OC13O (centres undefined) is 0.96

Memo: "COc1ccc2[nH]cc(CCN)c2c1" , reported normalized growth: 0.987

For this compound ( COC(=O)C[C@H]1C(C)(C)C2(O)OC34CC2C(=O)[C@]1(C)C3CC[C@]1(C)C4=CC(=O)O[C@H]1c1ccoc1 (some centres undefined) ), measured normalized growth is 1.01

Entry "Cc1cc(O)cc(C)c1Cl" — recorded normalized growth = 0.997

Record C[C@H]1[C@H](C)CC[C@]2(CO)CC[C@]3(C)C(=CCC4[C@@]5(C)CC[C@H](O)C(C)(C)C5CC[C@]43C)[C@H]12 (some centres undefined) . Reported normalized growth: 1.02

Entry under test: CC(C)=CCCC1(C)C=Cc2c(O)c3c(c(CC=C(C)C)c2O1)OC12C(CC4CC1C(C)(C)OC2(C/C=C(/C)C(=O)O)C4O)C3=O (centres undefined) . Its normalized growth was 1

For record "CC(C)(Sc1cc(C(C)(C)C)c(O)c(C(C)(C)C)c1)Sc1cc(C(C)(C)C)c(O)c(C(C)(C)C)c1" the listed normalized growth is 1.02

normalized growth for "Cc1cc(O)cc(O)c1C(=O)O" is 0.988

normalized growth reported for this compound C[C@@H]1CC[C@H]2[C@@H](C)C(O)O[C@@H]3O[C@@]4(C)CC[C@@H]1[C@]32OO4 (some centres undefined) : 0.256

###

Assay: chemical genetic growth profiling, strain panel (AID 1159580);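 further: tested at 20 µM; growth read once vehicle control cultures reached saturation at 30 °C; 1 = growth at the plate median or of vehicle wells; lower values mean less growth of the strain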
Conditions: S. cerevisiae deletion strains, growth OD, locus YBR229C, strain ROT2
Among all 5,500 compounds or so, about 2,000 (36%) were called active. Another 18% or so got no clear call; they are omitted. Cut-off read from the data, not from the text of the source: active = normalized growth mostly below about 0.91 (no sharp cut-off); inconclusive = no clear call, values can overlap the other calls; inactive = mostly above about 0.92. Some of the results follow.
Hello, when you answer, please use one of the following outcomes: active, inactive

Please review the following examples before continuing.
compound	category
CC(=O)O[C@@H]1CC[C@@]2(C)C(CC[C@]3(C)C2CC=C2C4CC(C)(C)CC[C@]4(C(=O)O)CC[C@]23C)C1(C)C (some centres undefined)	inactive
CC(OCc1ccccc1)C(NC(=O)OC(C)(C)C)C(N)=O (centres undefined)	inactive
CC1(C)CC[C@]2(C(=O)O)CC[C@]3(C)C(=CCC4[C@@]5(C)CC[C@H](O)[C@@](C)(CO)C5CC[C@]43C)C2C1 (some centres undefined)	inactive
O=C(O)/C=C/C(=O)Nc1ccc(-n2nc(C(F)(F)F)cc2C(F)(F)F)cc1	inactive
Clc1ccccc1C(c1ccccc1)(c1ccccc1)n1ccnc1	active

Could you please tell me the result logged for "Cc1nn(C)c(C)c1NS(=O)(=O)c1cc(Cl)sc1Cl" in this assay?
inactive

Tell me the assay call for "Cc1cc(=O)n2[nH]cc(C#N)c2n1" please.
inactive

Dear all, I need the recorded test outcome for "Cc1ccc(-c2cc(C(F)(F)F)nn2-c2ccc(S(N)(=O)=O)cc2)cc1" , thank you.
inactive

I'd appreciate the recorded outcome for COC(=O)C1Cc2c([nH]c3ccccc23)C2(CCN(C)CC2)N1 (centres undefined) from this test.
inactive

###

Parameter: normalized growth. Scope: all listed entries.
Assay: chemical genetic growth profiling, strain panel (AID 1159580);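 further: tested at 20 µM; growth read once vehicle control cultures reached saturation at 30 °C; 1 = growth at the plate median or of vehicle wells; lower values mean less growth of the strain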
Conditions: S. cerevisiae deletion strains, growth OD, locus YBR279W, strain paf1, stronger effect = lower value
Hit rate of the full screen: of about 5,500 compounds, about 2,000 (36%) were called active. Another 18% or so got no clear call; they are omitted. Some of the results follow.
Please respond with just the number, no unit label.

Past entries and their recorded results:
molecule	normalized growth
Cc1ccc(N=CN(C)C=Nc2ccc(C)cc2C)c(C)c1	0.983
O=c1[nH]cc(F)c(=O)[nH]1	0.555
Nc1c2c(nc3ccccc13)CCCC2	1
COC(=O)Nc1nc2ccc(C(=O)c3ccccc3)cc2[nH]1	0.958
Cc1ccc(S(=O)(=O)NC(=O)NN2CC3CCCC3C2)cc1 (stereo unspecified)	0.987

Notebook: "Nc1ccc(S(=O)(=O)c2ccc(N)cc2)cc1" , normalized growth read as 0.983

Reported normalized growth of "O=C(Nc1ccc(C(=O)O)c(O)c1)c1ccccc1" : 0.989

Memo: COC(=O)C[C@H]1C(C)(C)C(=O)[C@@H]2CC3C4=CC(=O)O[C@@H](c5ccoc5)[C@]4(C)CCC3[C@@]1(C)C2=O (stereo partly specified) , reported normalized growth: 0.996

###

Experiment: chemical genetic growth profiling, strain panel (AID 1159580);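 further: tested at 20 µM; growth read once vehicle control cultures reached saturation at 30 °C; 1 = growth at the plate median or of vehicle wells; lower values mean less growth of the strain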
Conditions: S. cerevisiae deletion strains, growth OD, locus YBR231C, strain swc5
Among all 5,500 compounds or so, about 2,000 (36%) were called active. Another 18% or so got no clear call; they are omitted. Rule as the data show it: active = normalized growth mostly below about 0.91 (no sharp cut-off); inconclusive = no clear call, values can overlap the other calls; inactive = mostly above about 0.92. The list shows a part of the results. Where a SMILES comes first, the peptide text is derived from it. Bridges are numbered along the chain shown (N, C = ends). [ ]: non-standard residue; d: D form. The star is where a group is joined. ξ: configuration not given here. ξDab(CH2SO3H) = NC(CCNCS(=O)(=O)O)C(=O)O; Heptanoyl(6-Me) = CC(C)CCCCC(=O)*; Dab = NCC[CH](N)C(=O)O
Parameter call: string, one of 1 (active), -1 (inactive)

Reference set, count: 4
compound	category
NNc1nncc2ccccc12	-1
CCC(C)C1NC(=O)C(CCNCS(=O)(=O)O)NC(=O)C(NC(=O)C(CCNCS(=O)(=O)O)NC(=O)C(NC(=O)C(CCNCS(=O)(=O)O)NC(=O)CCCCC(C)C)C(C)O)CCNC(=O)C(C(C)O)NC(=O)C(CCNCS(=O)(=O)O)NC(=O)C(CCNCS(=O)(=O)O)NC(=O)C(C(C)CC)NC1=O (centres undefined) ({Heptanoyl(6-Me)}-[ξDab(CH2SO3H)]T[ξDab(CH2SO3H)][Dab][ξDab(CH2SO3H)]II[ξDab(CH2SO3H)][ξDab(CH2SO3H)]T; lactam 4-C; configuration not given here)	-1
Nc1c2ccccc2nc2ccccc12 (tested in a mixture with another compound)	1
C#C[C@]1(OC(C)=O)CCC2C3CCC4=CC(=O)CC[C@@H]4C3CC[C@@]21C (some centres undefined)	-1

Give the logged outcome of this assay for the following compound: Nc1c2c(nc3ccccc13)CCCC2O (centres undefined)
-1

Query: recorded result category for "COc1ccc2c3c([nH]c2c1)C(C)=NCC3" in this test
-1

Which outcome was assigned to "N=C(N)SCCN" in this test?
-1

Would you mind telling me which call this test gave "O=C(CNC(=O)c1ccc(Cl)cc1)NO" ?
-1

Test call for this compound, please: "O=C1c2c(O)cccc2Cc2cccc(O)c21"
-1
